These entries and their values trace back to paper PMC7305236.

biological target: ACKR3 (Homo sapiens, UniProt P25106); test: cell-based; design: dose or concentration left out as unconfirmed; conditions: read-out: ACKR3 activity, ctrl+ = 100, Figure S2a; replicate 3
Sequence (P25106 whole entry): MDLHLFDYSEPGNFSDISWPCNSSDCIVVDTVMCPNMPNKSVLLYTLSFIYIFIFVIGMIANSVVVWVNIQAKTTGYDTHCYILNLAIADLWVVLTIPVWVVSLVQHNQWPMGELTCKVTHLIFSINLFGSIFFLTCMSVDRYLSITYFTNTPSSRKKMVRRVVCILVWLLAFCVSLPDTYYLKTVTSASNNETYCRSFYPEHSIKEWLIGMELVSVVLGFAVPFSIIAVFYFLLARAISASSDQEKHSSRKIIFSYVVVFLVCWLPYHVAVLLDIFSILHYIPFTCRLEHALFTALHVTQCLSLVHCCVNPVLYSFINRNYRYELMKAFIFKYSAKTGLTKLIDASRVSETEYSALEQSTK
Starred links: 1 amine or outer side, 2 acyl side, 3 side chain; linkers in the order of their positions; H or OH if unused. Non-standard residues stand in square brackets, D forms with d. Residues, ends and D or L forms follow the SMILES beside them. X1 = N[C@@H](Cc1ccccc1)CN(CC(=O)[*:2])[*:1]
quantity_kind: activation
For clarity, give the value followed by its unit.

As a guide, the following entries are already answered.
molecule	activation
CSCC[C@H](NC(=O)[C@H](Cc1ccccc1)NC(=O)CNC(=O)CNC(=O)[C@@H](N)Cc1ccc(O)cc1)C(=O)N[C@@H](CCCNC(=N)N)C(=O)N[C@@H](CCCNC(=N)N)C(=O)N[C@H](C(N)=O)C(C)C	84.5%
C[C@H](NC(=O)CNC(=O)[C@@H](NC(=O)[C@H](Cc1ccccc1)NC(=O)CNC(=O)CNC(=O)[C@@H](N)Cc1ccccc1)[C@@H](C)O)C(=O)N[C@@H](CCCNC(=N)N)C(=O)N[C@@H](CCCCN)C(=O)N[C@@H](CO)C(=O)N[C@@H](C)C(=O)N[C@@H](CCCNC(=N)N)C(=O)N[C@@H](CCCCN)C(N)=O	51.3%
C[C@H](NC(=O)CNC(=O)[C@@H](NC(=O)[C@H](Cc1ccccc1)NC(=O)CNC(=O)CNC[C@@H](N)Cc1ccccc1)[C@@H](C)O)C(=O)N[C@@H](CCCNC(=N)N)C(=O)N[C@@H](CCCCN)C(=O)N[C@@H](CO)C(=O)N[C@@H](C)C(=O)N[C@@H](CCCNC(=N)N)C(=O)N[C@@H](CCCCN)C(N)=O [FG Nociceptin 1-13] (H-[X1]GFTGARKSARK-NH2)	66%
CC[C@H](C)[C@H](NC(=O)[C@H](CCCNC(=N)N)NC(=O)[C@H](CCCNC(=N)N)NC(=O)[C@H](CC(C)C)NC(=O)[C@H](Cc1ccccc1)NC(=O)CNC(=O)CNC(=O)[C@@H](N)Cc1ccc(O)cc1)C(=O)N[C@@H](CCCNC(=N)N)C(=O)N1CCC[C@H]1C(=O)N[C@@H](CCCCN)C(=O)N[C@@H](CC(C)C)C(=O)N[C@@H](CCCCN)C(=O)N[C@@H](Cc1c[nH]c2ccccc12)C(=O)N[C@@H](CC(=O)O)C(=O)N[C@@H](CC(N)=O)C(=O)N[C@@H](CCC(N)=O)C(=O)O	99%

Switching to the query record.
Provide measured activation on ACKR3 (Homo sapiens, UniProt P25106) for `CC(C)C[C@H](NC(=O)[C@H](Cc1ccccc1)NC(=O)CNC(=O)CNC(=O)[C@@H](N)Cc1ccc(O)cc1)C(=O)N[C@@H](CCCN=C(N)N)C(=O)N[C@@H](CCCN=C(N)N)C(=O)N[C@@H](CCC(N)=O)C(=O)N[C@@H](Cc1ccccc1)C(=O)N[C@@H](CCCCN)C(=O)N[C@H](C(=O)N[C@H](C(=O)N[C@H](C(=O)O)[C@@H](C)O)C(C)C)C(C)C` please. 94.7%

----------
target: CCR4 (Homo sapiens); construct: expressed in transfected cells; experiment: Figure S2a opioid peptide screen on chemokine receptors; type: cell-based; parameters: dose or concentration left out as unconfirmed; settings: replicate 2, read-out: CCR4 activity, ctrl+ = 100
Sequence (P51679 whole entry): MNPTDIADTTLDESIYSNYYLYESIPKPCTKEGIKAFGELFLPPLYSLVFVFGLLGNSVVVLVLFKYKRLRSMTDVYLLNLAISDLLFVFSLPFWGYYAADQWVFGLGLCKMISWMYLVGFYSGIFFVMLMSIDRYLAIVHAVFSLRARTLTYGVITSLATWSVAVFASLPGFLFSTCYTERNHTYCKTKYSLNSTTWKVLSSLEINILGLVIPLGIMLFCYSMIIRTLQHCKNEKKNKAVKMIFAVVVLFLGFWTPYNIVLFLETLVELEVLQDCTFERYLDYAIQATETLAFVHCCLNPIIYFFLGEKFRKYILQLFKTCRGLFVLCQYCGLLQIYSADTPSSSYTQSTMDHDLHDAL
quantity_kind: activation
A bare number is not enough; add the unit after it.

mol	activation
CC(C)C[C@H](NC(=O)[C@H](Cc1ccccc1)NC(=O)CNC(=O)CNC(=O)[C@@H](N)Cc1ccc(O)cc1)C(=O)N[C@@H](CCCN=C(N)N)C(=O)N[C@@H](CCCN=C(N)N)C(=O)N[C@@H](CCC(N)=O)C(=O)N[C@@H](Cc1ccccc1)C(=O)N[C@@H](CCCCN)C(=O)N[C@H](C(=O)N[C@H](C(=O)N[C@H](C(=O)O)[C@@H](C)O)C(C)C)C(C)C	-2.57%
CC(C)C[C@H](NC(=O)[C@H](CCCCN)NC(=O)[C@H](CCCN=C(N)N)NC(=O)[C@H](C)NC(=O)[C@H](CO)NC(=O)[C@H](CCCCN)NC(=O)[C@H](CCCN=C(N)N)NC(=O)[C@H](C)NC(=O)CNC(=O)[C@@H](NC(=O)[C@H](Cc1ccccc1)NC(=O)CNC(=O)CNC(=O)[C@@H](N)Cc1ccccc1)[C@@H](C)O)C(=O)N[C@@H](C)C(=O)N[C@@H](CC(N)=O)C(=O)N[C@@H](CCC(N)=O)C(=O)O	-0.825%
CC[C@H](C)[C@H](NC(=O)[C@H](CCCNC(=N)N)NC(=O)[C@H](CCCNC(=N)N)NC(=O)[C@H](CC(C)C)NC(=O)[C@H](Cc1ccccc1)NC(=O)CNC(=O)CN)C(=O)N[C@@H](CCCNC(=N)N)C(=O)N1CCC[C@H]1C(=O)N[C@@H](CCCCN)C(=O)N[C@@H](CC(C)C)C(=O)N[C@@H](CCCCN)C(=O)N[C@@H](Cc1c[nH]c2ccccc12)C(=O)N[C@@H](CC(=O)O)C(=O)N[C@@H](CC(N)=O)C(=O)N[C@@H](CCC(N)=O)C(=O)O	-1.12%

Give one value of activation per listed compound.
1. CC[C@H](C)[C@H](NC(=O)[C@H](CCCNC(=N)N)NC(=O)[C@H](CCCNC(=N)N)NC(=O)[C@H](CC(C)C)NC(=O)[C@H](Cc1ccccc1)NC(=O)CNC(=O)CNC(=O)[C@@H](N)Cc1ccc(O)cc1)C(=O)N[C@@H](CCCNC(=N)N)C(=O)N1CCC[C@H]1C(=O)N[C@@H](CCCCN)C(=O)N[C@@H](CC(C)C)C(=O)N[C@@H](CCCCN)C(=O)N[C@@H](Cc1c[nH]c2ccccc12)C(=O)N[C@@H](CC(=O)O)C(=O)N[C@@H](CC(N)=O)C(=O)N[C@@H](CCC(N)=O)C(=O)O
2. CSCC[C@H](NC(=O)[C@H](Cc1ccccc1)NC(=O)CNC(=O)CNC(=O)[C@@H](N)Cc1ccc(O)cc1)C(=O)N[C@@H](CCCNC(=N)N)C(=O)N[C@@H](CCCNC(=N)N)C(=O)N[C@H](C(N)=O)C(C)C
3. CC[C@H](C)[C@H](NC(=O)[C@H](CCCNC(=N)N)NC(=O)[C@H](CCCNC(=N)N)NC(=O)[C@H](CC(C)C)NC(=O)[C@H](Cc1ccccc1)NC(=O)CNC(=O)CNC(=O)[C@@H](N)Cc1ccc(O)cc1)C(=O)N[C@@H](CCCNC(=N)N)C(=O)N1CCC[C@H]1C(=O)N[C@@H](CCCCN)C(=O)N[C@@H](CC(C)C)C(=O)N[C@@H](CCCCN)C(=O)O

1: 0.0408%; 2: -4.07%; 3: -3.89%

----------
biological target: CCR10 (Homo sapiens); construct: expressed in transfected cells; assay: Figure S2a opioid peptide screen on chemokine receptors; type: cell-based; parameters: dose or concentration left out as unconfirmed; settings: replicate 2, read-out: CCR10 activity, ctrl+ = 100
Sequence (P46092 whole entry): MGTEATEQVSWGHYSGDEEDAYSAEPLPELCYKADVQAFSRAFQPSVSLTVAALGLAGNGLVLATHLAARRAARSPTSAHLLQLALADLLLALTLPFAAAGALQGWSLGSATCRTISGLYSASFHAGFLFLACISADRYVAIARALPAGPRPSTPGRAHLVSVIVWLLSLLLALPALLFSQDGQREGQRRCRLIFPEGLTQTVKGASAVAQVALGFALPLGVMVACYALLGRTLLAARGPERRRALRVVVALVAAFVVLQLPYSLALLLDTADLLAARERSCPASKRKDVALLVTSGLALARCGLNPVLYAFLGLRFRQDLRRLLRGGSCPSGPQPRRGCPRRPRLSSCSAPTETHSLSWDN
Provide the reported activation of each item.
Answers are plain numbers, in %.

Below: 5 compounds and their reported activation.
compound	result_number
CSCC[C@H](NC(=O)[C@H](Cc1ccccc1)NC(=O)CNC(=O)CNC(=O)[C@@H](N)Cc1ccc(O)cc1)C(=O)N[C@@H](CCCNC(=N)N)C(=O)N[C@@H](CCCNC(=N)N)C(=O)N[C@H](C(N)=O)C(C)C	-7.52
CC[C@H](C)[C@H](NC(=O)[C@H](CCCNC(=N)N)NC(=O)[C@H](CCCNC(=N)N)NC(=O)[C@H](CC(C)C)NC(=O)[C@H](Cc1ccccc1)NC(=O)CNC(=O)CN)C(=O)N[C@@H](CCCNC(=N)N)C(=O)N1CCC[C@H]1C(=O)N[C@@H](CCCCN)C(=O)N[C@@H](CC(C)C)C(=O)N[C@@H](CCCCN)C(=O)N[C@@H](Cc1c[nH]c2ccccc12)C(=O)N[C@@H](CC(=O)O)C(=O)N[C@@H](CC(N)=O)C(=O)N[C@@H](CCC(N)=O)C(=O)O	-5.55
CC(C)C[C@H](NC(=O)[C@H](CCCCN)NC(=O)[C@H](CCCN=C(N)N)NC(=O)[C@H](C)NC(=O)[C@H](CO)NC(=O)[C@H](CCCCN)NC(=O)[C@H](CCCN=C(N)N)NC(=O)[C@H](C)NC(=O)CNC(=O)[C@@H](NC(=O)[C@H](Cc1ccccc1)NC(=O)CNC(=O)CNC(=O)[C@@H](N)Cc1ccccc1)[C@@H](C)O)C(=O)N[C@@H](C)C(=O)N[C@@H](CC(N)=O)C(=O)N[C@@H](CCC(N)=O)C(=O)O	-4.7
CC[C@H](C)[C@H](NC(=O)[C@H](CCCNC(=N)N)NC(=O)[C@H](CCCNC(=N)N)NC(=O)[C@H](CC(C)C)NC(=O)[C@H](Cc1ccccc1)NC(=O)CNC(=O)CNC(=O)[C@@H](N)Cc1ccc(O)cc1)C(=O)N[C@@H](CCCNC(=N)N)C(=O)N1CCC[C@H]1C(=O)N[C@@H](CCCCN)C(=O)N[C@@H](CC(C)C)C(=O)N[C@@H](CCCCN)C(=O)O	-4.52
C[C@H](NC(=O)CNC(=O)[C@@H](NC(=O)[C@H](Cc1ccccc1)NC(=O)CNC(=O)CNC(=O)[C@@H](N)Cc1ccccc1)[C@@H](C)O)C(=O)N[C@@H](CCCNC(=N)N)C(=O)N[C@@H](CCCCN)C(=O)N[C@@H](CO)C(=O)N[C@@H](C)C(=O)N[C@@H](CCCNC(=N)N)C(=O)N[C@@H](CCCCN)C(N)=O	-5.16

Please find the next compound below.
Output measured activation for this item: NC(=O)[C@H](Cc1ccccc1)NC(=O)[C@H](Cc1c[nH]c2ccccc12)NC(=O)[C@@H]1CCCN1C(=O)[C@@H](N)Cc1ccc(O)cc1 [Endomorphin-1] 7.53
